- System: HeLa Kyoto
- PROTOCOL DETAILS: solubility in G1/S (NP-40 vs SDS abundance) (log2 ratio); higher = more soluble
- RECORDED CONDITIONS: cell cycle stage: G1/S
MEASUREMENT LABEL: solubility in G1/S (log2)
Give bare numbers.

Task: Look at this sequence and give its reported solubility in G1/S (log2). MYTAIPQSGSPFPGSVQDPGLHVWRVEKLKPVPVAQENQGVFFSGDSYLVLHNGPEEVSHLHLWIGQQSSRDEQGACAVLAVHLNTLLGERPVQHREVQGNESDLFMSYFPRGLKYQEGGVESAFHKTSTGAPAAIKKLYQVKGKKNIRATERALNWDSFNTGDCFILDLGQNIFAWCGGKSNILERNKARDLALAIRDSERQGKAQVEIVTDGEEPAEMIQVLGPKPALKEGNPEEDLTADKANAQAAALYKVSDATGQMNLTKVADSSPFALELLISDDCFVLDNGLCGKIYIWKGRKANEKERQAALQVAEGFISRMQYAPNTQVEILPQGHESPIFKQFFKDWK [CAPG]
Result: 0.272

====

- Tested on: HeLa Kyoto
- PROTOCOL DETAILS: thermal stability score vs G1/S (z-score of summed log2 fold changes over temperatures); higher = more thermally stable than in G1/S
- RECORDED CONDITIONS: cell cycle stage: early G1 (4.5 h after nocodazole release)
MEASUREMENT LABEL: thermal stability score

Consider the worked cases shown below.
Task: Fill blank: measured thermal stability score of the sequence MESGGRPSLCQFILLGTTSVVTAALYSVYRQKARVSQELKGAKKVHLGEDLKSILSEAPGKCVPYAVIEGAVRSVKETLNSQFVENCKGVIQRLTLQEHKMVWNRTTHLWNDCSKIIHQRTNTVPFDLVPHEDGVDVAVRVLKPLDSVDLGLETVYEKFHPSIQSFTDVIGHYISGERPKGIQETEEMLKVGATLTGVGELVLDNNSVRLQPPKQGMQYYLSSQDFDSLLQRQESSVRLWKVLALVFGFATCATLFFILRKQYLQRQERLRLKQMQEEFQEHEAQLLSRAKPEDRESLKSACVVCLSSFKSCVFLECGHVCSCTECYRALPEPKKCPICRQAITRVIPLYNS [MUL1] is ____.
Result: -0.138

Task: Dear colleague, I am looking for the recorded thermal stability score of the following sequence: MAASRPLSRFWEWGKNIVCVGRNYADHVREMRSAVLSEPVLFLKPSTAYAPEGSPILMPAYTRNLHHELELGVVMGKRCRAVPEAAAMDYVGGYALCLDMTARDVQDECKKKGLPWTLAKSFTASCPVSAFVPKEKIPDPHKLKLWLKVNGELRQEGETSSMIFSIPYIISYVSKIITLEEGDIILTGTPKGVGPVKENDEIEAGIHGLVSMTFKVEKPEY [FAHD1]
Result: -1.32

New cases:
Task: Quick one: thermal stability score for MPKHEFSVDMTCGGCAEAVSRVLNKLGGVKYDIDLPNKKVCIESEHSMDTLLATLKKTGKTVSYLGLE [ATOX1] ?
Result: -3.27

====

- Tested on: HeLa Kyoto
- PROTOCOL DETAILS: thermal stability score vs G1/S (z-score of summed log2 fold changes over temperatures); higher = more thermally stable than in G1/S
- RECORDED CONDITIONS: cell cycle stage: mitosis
What thermal stability score was measured for each of the following?

Task: // returns reported thermal stability score for input MGKSDFLTPKAIANRIKSKGLQKLRWYCQMCQKQCRDENGFKCHCMSESHQRQLLLASENPQQFMDYFSEEFRNDFLELLRRRFGTKRVHNNIVYNEYISHREHIHMNATQWETLTDFTKWLGREGLCKVDETPKGWYIQYIDRDPETIRRQLELEKKKKQDLDDEEKTAKFIEEQVRRGLEGKEQEVPTFTELSRENDEEKVTFNLSKGACSSSGATSSKSSTLGPSALKTIGSSASVKRKESSQSSTQSKEKKKKKSALDEIMEIEEEKKRTARTDYWLQPEIIVKIITKKLGEKYHKKKAIVKEVIDKYTAVVKMIDSGDKLKLDQTHLETVIPAPGKRILVLNGGYRGNEGTLESINEKTFSATIVIETGPLKGRRVEGIQYEDISKLA [KIN]
Result: 1.45

Task: Which thermal stability score reading was recorded for the sequence MPNIVLFSGSSHQDLSQRVADRLGLELGKVVTKKFSNQETSVEIGESVRGEDVYIIQSGCGEINDNLMELLIMINACKIASSSRVTAVIPCFPYARQDKKDKSRAPISAKLVANMLSVAGADHIITMDLHASQIQGFFDIPVDNLYAEPAVLQWIRENIAEWKNCIIVSPDAGGAKRVTSIADRLNVEFALIHKERKKANEVDRMVLVGDVKDRVAILVDDMADTCGTICHAADKLLSAGATKVYAILTHGIFSGPAISRINNAAFEAVVVTNTIPQEDKMKHCTKIQVIDISMILAEAIRRTHNGESVSYLFSHVPL [PRPS2] ?
Result: 2.12

Task: // query thermal stability score value for entry MSTAREQPIFSTRAHVFQIDPATKRNWIPAGKHALTVSYFYDATRNVYRIISIGGAKAIINSTVTPNMTFTKTSQKFGQWADSRANTVYGLGFASEQHLTQFAEKFQEVKEAARLAREKSQDGGELTSPALGLASHQVPPSPLVSANGPGEEKLFRSQSADAPGPTERERLKKMLSEGSVGEVQWEAEFFALQDSNNKLAGALREANAAAAQWRQQLEAQRAEAERLRQRVAELEAQAASEVTPTGEKEGLGQGQSLEQLEALVQTKDQEIQTLKSQTGGPREALEAAEREETQQKVQDLETRNAELEHQLRAMERSLEEARAERERARAEVGRAAQLLDVSLFELSELREGLARLAEAAP [HOMER3]
Result: -1.09

Moving on to the next sequence.
Task: Field request: thermal stability score | item: MNAARTGYRVFSANSTAACTELAKRITERLGAELGKSVVYQETNGETRVEIKESVRGQDIFIIQTIPRDVNTAVMELLIMAYALKTACARNIIGVIPYFPYSKQSKMRKRGSIVCKLLASMLAKAGLTHIITMDLHQKEIQGFFSFPVDNLRASPFLLQYIQEEIPNYRNAVIVAKSPDAAKRAQSYAERLRLGLAVIHGEAQCTELDMDDGRHSPPMVKNATVHPGLELPLMMAKEKPPITVVGDVGGRIAIIVDDIIDDVESFVAAAEILKERGAYKIYVMATHGILSAEAPRLIEESSVDEVVVTNTVPHEVQKLQCPKIKTVDISLILSEAIRRIHNGESMAYLFRNITVDD [PRPSAP1]
Result: -2.79
